Reference source: patent US20230008368A1

# SYSTEM TESTED: hTLR8 (Homo sapiens)
# Construct: expressed in transfected cells; host or cells: HEK-Blue hTLR cells
# Sequence (Q9NR97 27-1041): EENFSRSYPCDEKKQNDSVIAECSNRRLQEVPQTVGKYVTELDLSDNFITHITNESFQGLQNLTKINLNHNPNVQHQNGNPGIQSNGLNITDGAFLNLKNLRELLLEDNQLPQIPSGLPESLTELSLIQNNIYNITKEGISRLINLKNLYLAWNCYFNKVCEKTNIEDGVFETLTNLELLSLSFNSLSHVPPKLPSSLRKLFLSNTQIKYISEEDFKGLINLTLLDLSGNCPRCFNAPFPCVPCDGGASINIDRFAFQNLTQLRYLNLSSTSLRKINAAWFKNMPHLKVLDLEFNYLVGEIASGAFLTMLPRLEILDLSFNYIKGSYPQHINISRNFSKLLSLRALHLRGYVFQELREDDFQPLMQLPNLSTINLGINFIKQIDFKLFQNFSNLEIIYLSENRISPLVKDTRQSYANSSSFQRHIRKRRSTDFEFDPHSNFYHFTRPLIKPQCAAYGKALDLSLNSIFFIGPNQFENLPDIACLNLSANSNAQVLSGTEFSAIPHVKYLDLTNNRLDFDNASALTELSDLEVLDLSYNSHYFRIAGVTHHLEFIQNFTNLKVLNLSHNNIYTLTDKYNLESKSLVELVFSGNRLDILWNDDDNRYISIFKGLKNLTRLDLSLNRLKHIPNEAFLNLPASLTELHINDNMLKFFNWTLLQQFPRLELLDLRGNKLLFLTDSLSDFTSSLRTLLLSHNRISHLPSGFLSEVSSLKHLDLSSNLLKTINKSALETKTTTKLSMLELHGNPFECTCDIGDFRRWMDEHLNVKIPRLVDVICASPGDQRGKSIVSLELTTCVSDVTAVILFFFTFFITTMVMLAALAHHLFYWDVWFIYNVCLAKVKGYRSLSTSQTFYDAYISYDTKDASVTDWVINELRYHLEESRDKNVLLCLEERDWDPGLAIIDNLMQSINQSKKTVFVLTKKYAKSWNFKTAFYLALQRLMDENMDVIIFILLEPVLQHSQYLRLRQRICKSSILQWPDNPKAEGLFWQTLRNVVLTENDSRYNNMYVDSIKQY
# TEST DESCRIPTION: agonistic activity on hTLR8, HEK-Blue hTLR cells, SEAP reporter (QUANTI-Blue)
# Type: cell-based
# CONDITION LABEL: ratio of TLR 7 EC50 to TLR 8 EC50
# Procedure: Experiments on the agonistic activity of TLR7 and TLR8 by the compounds in vitro The compound was diluted with 1:3 series with DMSO for 9 concentration points, duplicated wells, and added to 96-well plate with Echo. […] 20 uL cell culture supernatant was taken, according to the QUANTI-Blue instructions, the reporter gene SEAP in the supernatant was detected, and the OD650 signal value was read with a microplate reader to calculate the agonist activity of the compound on the hTLR7 and hTLR8. […]
Listed compounds paired with reported TLR 8 selectivity TLR 7/TLR 8

Example results:
{"columns": ["COMPOUND", "TLR 8 selectivity TLR 7/TLR 8"],
 "data": [
  ["CCOCc1nc2c(N)nc3ccccc3c2n1C[C@@H](C)O[P@@](=O)(N[C@@H](C)C(=O)OCc1ccccc1)Oc1ccccc1 (single isomer, unassigned) [Example 16A]", 165],
  ["CCOCc1nc2c(N)nc3ccccc3c2n1C[C@@H](C)O[P@@](=O)(N[C@@H](C)C(=O)OC(C)(C)C)Oc1ccc(Cl)cc1 (single isomer, unassigned) [Example 19A]", ">513"],
  ["CCOCc1nc2c(N)nc3ccccc3c2n1C[C@@H](C)O[P@@](=O)(N[C@@H](C)C(=O)OC(C)C)Oc1cccc2ccccc12 (single isomer, unassigned)", ">1086"],
  ["CCOCc1nc2c(N)nc3ccccc3c2n1C[C@@H](C)O[P@@](=O)(N[C@@H](C)C(=O)OC(C)C)Oc1ccc(C)cc1 (single isomer, unassigned)", 1202],
  ["CCOCc1nc2c(N)nc3ccccc3c2n1C[C@@H](C)O[P@@](=O)(N[C@@H](C)C(=O)OC(C)(C)C)Oc1ccc(C)cc1 (single isomer, unassigned) [Example 17A]", ">226"]
]}

Shifting focus to the compound that follows.
Field TLR 8 selectivity TLR 7/TLR 8 (entry CCOCc1nc2c(N)nc3ccccc3c2n1C[C@H](C)O[P@](=O)(N[C@@H](C)C(=O)OC(C)C)Oc1ccccc1 (single isomer, unassigned) ) reads 1.9
